Reported protein stability index by item:
Assay: protein stability index of a GFP-peptide fusion (yeast GPS) (PSI 1-4); higher = more stable; sorted into four equal gates, so the index is relative within each strain
Details: san1∆

>  <Residue Sequence>
ALNGIDINTVNTNLMNG [GRR1]

>  <protein stability index>
3.08

$$$$
>  <Residue Sequence>
KTKFQYKFLDQNSDAST [YIL149C/MLP2]

>  <protein stability index>
2.94

$$$$
>  <Residue Sequence>
NQSAYEWNGKSFQKKSN [ISW2]

>  <protein stability index>
3.09

$$$$
>  <Residue Sequence>
GGGYFSAAGMTAAIDSV [FAS1]

>  <protein stability index>
3

$$$$
>  <Residue Sequence>
KFTTVLAKILARSIDVE [ECM29]

>  <protein stability index>
2.94

$$$$
>  <Residue Sequence>
GSHLFSIHAHGSTDVGY [PUP1]

>  <protein stability index>
2.92

$$$$

* * *

Test: protein stability index of a GFP-peptide fusion (yeast GPS) (PSI 1-4); higher = more stable; sorted into four equal gates, so the index is relative within each strain
Details: pdr5∆
Quantity: protein stability index

>  <Residue Sequence>
LRIELQSVYNDEKLKTE [SRB8]

>  <Measured Result>
3.23

$$$$
>  <Residue Sequence>
VHMYHKSLALLGYNFDG [SNF5]

>  <Measured Result>
1.78

$$$$
>  <Residue Sequence>
PKFGVEGLIRLDNLTED [DIS3]

>  <Measured Result>
2.86

$$$$
>  <Residue Sequence>
DPPIIIFINYKQTADWL [PRP28]

>  <Measured Result>
1.61

$$$$
>  <Residue Sequence>
ATKAINGCIFTLNPKTG [PRP8]

>  <Measured Result>
2.73

$$$$
>  <Residue Sequence>
FHKQQAHFWKPVLNLDK [RPL28]

>  <Measured Result>
3.19

$$$$
>  <Residue Sequence>
TFAQEKLNTFENDLLQE [SMC3]

>  <Measured Result>
3.26

$$$$
>  <Residue Sequence>
EKKILNQFLKIKKKRKE [SMC1]

>  <Measured Result>
3.06

$$$$
>  <Residue Sequence>
DDLPYYVNALADVLYKT [QCR2]

>  <Measured Result>
2.86

$$$$
>  <Residue Sequence>
ELAQYMKTNVHTQANEP [RGR1]

>  <Measured Result>
2.99

$$$$
>  <Residue Sequence>
MSAAPVQDKDTLSNAER [GAL11]

>  <Measured Result>
3.07

$$$$
>  <Residue Sequence>
SLPHFPKNSKTPQSKGF [RPO31]

>  <Measured Result>
3.08

$$$$
>  <Residue Sequence>
CDYYNTFLLNNKNIDIG [RPN2]

>  <Measured Result>
3.04

$$$$
>  <Residue Sequence>
APMRLATAALEIILKLC [YJL039C/NUP192]

>  <Measured Result>
2.06

$$$$
>  <Residue Sequence>
AVTEATSTNGDSENNEE [RGR1]

>  <Measured Result>
3.3

$$$$
>  <Residue Sequence>
ATAVAHVKAGKGLIKVN [RPS16A]

>  <Measured Result>
1.9

$$$$
>  <Residue Sequence>
AQSHQRFNAKVSMVKRA [CDC53]

>  <Measured Result>
2.09

$$$$
>  <Residue Sequence>
MGGIREKKAEYFAKLRE [RPP0]

>  <Measured Result>
3.37

$$$$
>  <Residue Sequence>
SGWTPFHIACSVGNLEV [NAS6]

>  <Measured Result>
1.89

$$$$
>  <Residue Sequence>
KTVKELRQLLKERYTVE [RRI1]

>  <Measured Result>
2.1

$$$$
>  <Residue Sequence>
TLRPRQYATVSKTHKTV [RPL34A]

>  <Measured Result>
2.12

$$$$
>  <Residue Sequence>
ELMRIISRNGDTSYKID [SMC1]

>  <Measured Result>
3.08

$$$$
>  <Residue Sequence>
SAGNDKMVKAWNLNQFQ [ASC1]

>  <Measured Result>
2.38

$$$$
>  <Residue Sequence>
MAREHAPSIIFMDEIDS [RPT6]

>  <Measured Result>
2.11

$$$$
>  <Residue Sequence>
ERVPKTQLDKLRPRKDS [SMB1]

>  <Measured Result>
3.07

$$$$
>  <Residue Sequence>
DLSLNIHPIPSVTVSQG [YMR129W/POM152]

>  <Measured Result>
2.43

$$$$
>  <Residue Sequence>
CRSCPYEFPIEGIEIYD [RPC11]

>  <Measured Result>
2.32

$$$$
>  <Residue Sequence>
HSPFPFNRTKGKMVRAQ [PRP8]

>  <Measured Result>
1.16

$$$$
>  <Residue Sequence>
MDWLDNWGRKEHDLLRQ [ITC1]

>  <Measured Result>
3.33

$$$$
>  <Residue Sequence>
VHNTVAAGNASSLPPGE [SNF5]

>  <Measured Result>
2.75

$$$$
>  <Residue Sequence>
MAGLSFDNYQRNNFLAE [PUP1]

>  <Measured Result>
3.58

$$$$
>  <Residue Sequence>
FVIPALPAAVSKSLQES [RPC82]

>  <Measured Result>
1.69

$$$$
>  <Residue Sequence>
IFALCIYNSTDSNSEIL [YML103C/NUP188]

>  <Measured Result>
2.19

$$$$
>  <Residue Sequence>
VALTGLLIRSKTEDPKG [YML031W/NDC1]

>  <Measured Result>
2.21

$$$$
>  <Residue Sequence>
AEQSFDQQSPWLLRLEL [RPO21]

>  <Measured Result>
3.14

$$$$
>  <Residue Sequence>
GRGTLFVRGDSKIFRFQ [RPL24A]

>  <Measured Result>
1.74

$$$$
>  <Residue Sequence>
VQLPILKIIYTGLCSFD [YJL039C/NUP192]

>  <Measured Result>
1.76

$$$$
>  <Residue Sequence>
NLQVELLSEHDDHNGEV [YGL100W/SEH1]

>  <Measured Result>
3.2

$$$$
>  <Residue Sequence>
DLNTRISVIETIRVVTE [RPN5]

>  <Measured Result>
2.04

$$$$
>  <Residue Sequence>
VTSSFFYRGNYTDFENT [FAS1]

>  <Measured Result>
2.4

$$$$
>  <Residue Sequence>
RLIVDPNIADYITAKNN [PRP8]

>  <Measured Result>
2.22

$$$$
>  <Residue Sequence>
EPPLSYEQHIENIEPLD [PRP8]

>  <Measured Result>
2.97

$$$$
